- Tested system: T1, recombinant human CD40-Fc (human, UniProt P25942 21-193)
- T1 construct: also called rh-CD40-Fc; CD40-hFc
- T1 sequence (P25942 21-193): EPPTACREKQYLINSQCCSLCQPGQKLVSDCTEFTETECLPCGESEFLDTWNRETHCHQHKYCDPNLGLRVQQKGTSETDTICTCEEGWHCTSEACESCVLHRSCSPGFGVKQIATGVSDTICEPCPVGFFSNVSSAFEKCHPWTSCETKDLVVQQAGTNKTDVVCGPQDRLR
- Test protocol: ELISA, CD40-Fc coated, VHH at 0.32 nM
Values of OD450 greater than or equal to 0.2 map to true (1); values below map to false (0).

Form field: OD450 at least 0.2? Entry: pgDD40-HZ-24 (VHH, not shown: small tags and cut ends, also called pgDD40-HG-24) VHH: EVQLVESGGGSVQAGGSLRLSCAASLSTFSNYRMGWFRRAPGKERELVARIEPHGVVDYGDSVKGRFTISRDNAKNTVTVYLHMNSLKPEDTAVYYCNALRLISGRYDPLFSSWGQGTQVTVSS
true (1)

Check the entry pgDD40-HZ-15 (VHH, not shown: small tags and cut ends) VHH: EVQLVESGGGLVQAGGSLRLSCAASGFTFDDYAIGWFRQAPGKEREGVSCLSKNVGNTYYADSVKGRFTISSDNAKNTVYLQMNSLKPEDTAVYYCAKGSGYGCYDFPRYAVWGQGTQVTVSS : does OD450 equal or exceed 0.2?
false (0)

Check the entry pgDD40-HZ-28 (VHH, not shown: small tags and cut ends) VHH: EVQLVESGGGLVQAGGSLRLSCVASERTFTPVRMGWFRQAPGKEREIVAAITWSDGSTYYADAVKGRFTISRDNALNAVYLQIDSLKPEDTAVYVCAASTSPYSTHLQFRYWGQGTQVTVSS : does OD450 equal or exceed 0.2?
false (0)

In plain terms: is recorded OD450 at least 0.2 for pgDD40-HZ-47 (VHH, not shown: small tags and cut ends) VHH: QVQLVESGGGLVQPGGSMRLSCSASGFSISVYWMSWVRRAPGKGLEWVSNLGADGVTAQYSDSVKGRFTIARDTAKNTLYLQMNSLKPEDTAVYYCNAMTGMNPAEEEAYWGQGTQVTVSS ?
false (0)

Hi team, for pgDD40-SZ-1 (VHH, not shown: small tags and cut ends) VHH: QVQLVESGGALAQPGGSLRLSCEASTNVRSVNAMAWYRQGPGKPRELVANITSDDATYYADSVKGRFTLSREGARNTVYLQMNSLKPEDTAVYQCNVHYTSWGGIRRDYWGRGTQVTVSS , is the recorded OD450 at or above 0.2?
true (1)

Please tell me: is the binder pgDD40-SZ-5 (VHH, not shown: small tags and cut ends) VHH: QVQLVESGGALAQPGGSLRLSCEASENVRSVNAMAWYRQGPGKPRELVANITSGDATYYADSVKGRFTLSREGARNTVYLQMNSLKPEDTAVYQCNVHYTSWGGIRRDYWGRGTQVTVSS at or over 0.2 in terms of OD450?
true (1)

Determine whether measured OD450 meets or exceeds 0.2 for pgDD40-SZ-7 (VHH, not shown: small tags and cut ends) VHH: QVQLVESGGALAQPGGSLRLSCEASATVRSVNAMAWYRQGPGKPRELVANITSGDTTYYADSVKGRFTLSREGARNTVYLQMNSLKPEDTAVYQCNIHYTSTGGIRRDYWGRGTQVTVSS
true (1)

Evaluate pgDD40-SZ-2 (VHH, not shown: small tags and cut ends) VHH: EVQLVESGGALAQPGGSLRLSCEASATIRSVNAMAWYRQGPGKPREMVANITSGDTTYYADSVKGRFTLSREGARNTVYLQMNSLKPEDTAVYQCNIHYTSTGGIRRDYWGRGTQVTVSS : OD450 at minimum 0.2?
true (1)

In plain terms: is recorded OD450 at least 0.2 for pgDD40-SZ-12 (VHH, not shown: small tags and cut ends) VHH: EVQLVESGGGLVQPGGSLKLSCAASGFAFSRYTMSWVRQAPGKGLEWVSGIDSGGGRTSYINSVKGRFTISRDNAKNTLYLQMNSLKPEDTAVYHCAQGGDSGSYYRTSWGQGTQVTVSS ?
false (0)

Answer whether OD450 of pgDD40-SZ-3 (VHH, not shown: small tags and cut ends) VHH: QVQLVESGGGLVQAGDSLRLSCTASGRAFNTYTMAWFRQAPGKERDFVAAISRDGTITHYADSVKGRFTTTRDNAKNTMYLQMSSLKYDDTAVYYCAARRVGAVPERESAYEHWGQGTQVTVSS is greater than or equal to 0.2.
true (1)
